Tested on: HL-60
ASSAY COMMENT: NCI tumour cell line growth inhibition, 48 h
Activity calls are given as the source filed them. Rule as the data show it: active = GI50 up to about 1.1 µM and inactive = higher.
Your reply should match one of these outcome classes. active, inactive

COc1c(C)c2c(c(=O)c3c(C)cccc3n2C)c2c1c(=O)c1c(C)cccc1n2C : inactive
CC(=O)Nc1ccc(Nc2nc(=O)[nH]c(=O)[nH]2)cc1 : inactive
Cn1c(N)c(/C=C/C(=O)Oc2ccccc2)c(=O)n(C)c1=O : inactive
CCOC(=O)c1ccc2c(c1)nc1n2C(c2c(F)cccc2F)SC1 (stereo unspecified) : inactive
CN(CCc1ccccn1)C(=S)N/N=C(\c1ccccc1)c1ccccn1 : active

Input line: Hi, sorry to bother you, what did the test record for `CCSCCCC(=O)O` ?
Output line: inactive

Input line: Hi, sorry to bother you, what did the test record for `O=c1nc(-c2ccccc2)scc1-c1ccccc1` ?
Output line: inactive

Input line: Hi, sorry to bother you, what did the test record for O=C1c2c(O)cccc2Cc2cccc(O)c21 [ANTHRALIN] ?
Output line: active

Input line: Hi, sorry to bother you, what did the test record for `O=C(O)COc1ccc(O)c2c1C(=O)CCCC2=O` ?
Output line: inactive

Input line: Hi, sorry to bother you, what did the test record for `COc1ccccc1CNCCCCCNCCCCCCCCCCNCCCCCNCc1ccccc1OC` ?
Output line: inactive

Input line: Hi, sorry to bother you, what did the test record for O=C(O)c1c(CC(Cc2ccccc2)C(=O)O)ccc2c1CCC2 (stereo unspecified) ?
Output line: inactive

Input line: Hi, sorry to bother you, what did the test record for `O=C(O)COc1ccccc1C(=O)Nc1ccccc1` ?
Output line: inactive

Input line: Hi, sorry to bother you, what did the test record for Cc1cc(S(=O)(=O)NC2=NNC(C)CN2)c(S)cc1Cl (stereo unspecified) ?
Output line: inactive

Input line: Hi, sorry to bother you, what did the test record for `C/C(=N\N=C(/S)SCc1ccccc1)c1ccccn1` ?
Output line: active

* * *

Tested on: OVCAR-8
ASSAY COMMENT: NCI tumour cell line growth inhibition, 48 h
The source made the active and inactive calls. No stated cut-off is given here; in the data, active = GI50 up to about 1.1 µM and inactive = higher.
Your reply should match one of these outcome classes. active, inactive

Before answering, review these 6 worked examples.
COC(=O)CC(=O)C[P+](c1ccccc1)(c1ccccc1)c1ccccc1 : inactive
Cc1ccc(-n2c(N)c(C#N)c3[nH]nc(N)c3c2=O)cc1 : inactive
Cc1ccc(NC(=O)/C(C#N)=C/c2ccccc2)c(C)c1 : inactive
CCOC(=O)NC(=O)c1cn(CCSCCOC(=O)NCCCCCCNC(=O)OCCSCCn2cc(C(=O)NC(=O)OCC)c(=O)n(C)c2=O)c(=O)n(C)c1=O : inactive
COc1ccc2[nH]cc(CCNC(=O)[C@H](Cc3ccccc3)NC(=O)[C@@H](NCC(F)(F)F)C(C)C)c2c1 : inactive
C[n+]1c(-c2ccc(/C=C/C=N\NC(=O)c3ccc(C(=O)N/N=C\C=C\c4ccc(-c5cn6ccccc6[n+]5C)cc4)cc3)cc2)cn2ccccc21 : inactive

Input line: Hi, sorry to bother you, what did the test record for `COC(=O)Nc1nc2cc(S(=O)(=O)n3nnc4ccccc43)ccc2[nH]1` ?
Output line: inactive

Input line: Hi, sorry to bother you, what did the test record for `CN(C)c1ccc(/C=C/c2ccc3ccccc3[n+]2C)cc1` ?
Output line: inactive

Input line: Hi, sorry to bother you, what did the test record for `N#C/N=C(/N)NCO` ?
Output line: inactive

Input line: Hi, sorry to bother you, what did the test record for `O=C1NCC2(CCNCC2)N1c1ccccc1` ?
Output line: inactive

Input line: Hi, sorry to bother you, what did the test record for `c1ccc2c3c(c(N4CCOCC4)nc2c1)CCCC3` ?
Output line: inactive

Input line: Hi, sorry to bother you, what did the test record for C=C1CC(COc2ccc3c(C)c(Cl)c(=O)oc3c2)(c2ccccc2)OC1=O (stereo unspecified) ?
Output line: inactive
